Record form. Attribute: CC50 at 24 h. Fill in for each entry.
# Protocol description: in vitro
# Set-up: MTT viability assay on human PBMCs, absorbance at 570 nm
# Settings: human, pbmc; 24 h exposure, MTT; read-out: IC50

Take a look at these entries with their results.
record_smiles=COC(=O)c1cc(-c2cccc(NC(C)=O)c2)cn1Cc1ccc(C)cc1 parameter="CC50 at 24 h" val="> 256 µg/mL"
record_smiles=CCOC(=O)c1cc(-c2ccc(F)cc2F)cn1Cc1ccc(F)cc1 parameter="CC50 at 24 h" val="> 128 µg/mL"
record_smiles=CCOC(=O)c1cc(-c2ccc(F)cn2)cn1Cc1ccc(F)cc1 parameter="CC50 at 24 h" val="> 128 µg/mL"

Then this compound:
Ask | Give the measured CC50 at 24 h for `COC(=O)c1cc(-c2ccc(F)cc2)cn1Cc1ccc(F)cc1`
Reply | 256 µg/mL

###

# Test system: Pseudomonas aeruginosa ATCC BAA-2795
# Construct: ATCC BAA-2795
# Protocol description: microbe, parasite or virus in culture
# Design: MIC of antibiotic alone from antibiotic potentiation assay against XDR strain
# Settings: ATCC BAA-2782 / ATCC BAA-2795, read-out: MIC (μg/mL) / Klebsiella pneumoniae ATCC BAA-2782 / Pseudomonas aeruginosa ATCC BAA-2795
Parameter: MIC

record_smiles=CC[C@H]1OC(=O)[C@H](C)[C@@H](O[C@H]2C[C@@](C)(OC)[C@@H](O)[C@H](C)O2)[C@H](C)[C@@H](O[C@@H]2O[C@H](C)C[C@H](N(C)C)[C@H]2O)[C@](C)(O)C[C@@H](C)C(=O)[C@H](C)[C@@H](O)[C@]1(C)O study_target="Pseudomonas aeruginosa ATCC BAA-2795" val="512 µg/mL"
record_smiles=CN(C)[C@@H]1C(O)=C(C(N)=O)C(=O)[C@@]2(O)C(O)=C3C(=O)c4c(O)cccc4[C@@](C)(O)[C@H]3C[C@@H]12 study_target="Pseudomonas aeruginosa ATCC BAA-2795" val="32 µg/mL"
record_smiles=CCN1CCN(C(=O)N[C@@H](C(=O)N[C@@H]2C(=O)N3[C@@H]2SC(C)(C)[C@@H]3C(=O)O)c2ccccc2)C(=O)C1=O study_target="Pseudomonas aeruginosa ATCC BAA-2795" val="256 µg/mL"
record_smiles=O=C(O)c1cn(C2CC2)c2cc(N3CCNCC3)c(F)cc2c1=O study_target="Pseudomonas aeruginosa ATCC BAA-2795" val="256 µg/mL"
record_smiles=O=C(N[C@H](CO)[C@H](O)c1ccc([N+](=O)[O-])cc1)C(Cl)Cl study_target="Pseudomonas aeruginosa ATCC BAA-2795" val="256 µg/mL"
record_smiles=CN(C)c1cc(NC(=O)CNC(C)(C)C)c(O)c2c1C[C@H]1C[C@H]3[C@H](N(C)C)C(O)=C(C(N)=O)C(=O)[C@@]3(O)C(O)=C1C2=O study_target="Pseudomonas aeruginosa ATCC BAA-2795" val="256 µg/mL"

Consider the additional compound presented here.
Ask | Supply recorded MIC for `C[C@H]1COc2c(N3CCN(C)CC3)c(F)cc3c(=O)c(C(=O)O)cn1c23` here.
Reply | 256 µg/mL
